assay: Plasma concentration versus time of Compound I and metabolite Compound III in patients dosed QD or BID with Form B of Compound II plus fulvestrant; format: in vivo, human; settings: human, plasma, oral, 200 mg, 200 mg QD of Form B, Day 1, 4.0 h, Mean; read-out: Compound I Concentration
assay_metric: concentration at 4 h

Bench note: what concentration at 4 h did CC(C)N1CCN(c2ccc(Nc3ncc4cc5n(c4n3)C3(CCCCC3)CNC5=O)nc2)CC1 [Compound I] show?
25 ng/mL

----------
test: Plasma concentration versus time of Compound I and metabolite Compound III in patients dosed QD or BID with Form B of Compound II plus fulvestrant; assay type: in vivo, human; settings: human, plasma, oral, 200 mg, Cohort 8, 200 mg BID of Form B, Day 29, 6.0 h; read-out: Compound I Concentration, Mean
assay_metric: concentration at 6 h (ng/mL)
I only need the number, in ng/mL, no unit after it.

Bench note: what concentration at 6 h did `CC(C)N1CCN(c2ccc(Nc3ncc4cc5n(c4n3)C3(CCCCC3)CNC5=O)nc2)CC1` show?
19

----------
assay: Plasma concentration versus time of Compound I and metabolite Compound III in patients dosed QD or BID with Form B of Compound II plus fulvestrant; assay type: in vivo, human; settings: human, plasma, oral, 650 mg, Cohort 5, 650 mg QD of Form B, Day 29, 3.0 h; read-out: Compound III Concentration, Median
assay_metric: concentration at 3 h (ng/mL)
I only need the number, in ng/mL, no unit after it.

Bench note: what concentration at 3 h did `O=C1NCC2(CCCCC2)n2c1cc1cnc(Nc3ccc(N4CCNCC4)cn3)nc12` show?
3.89

----------
assay: Plasma concentration versus time of Compound I and metabolite Compound III in patients dosed QD or BID with Form B of Compound II plus fulvestrant; type: in vivo, human; conditions: human, plasma, oral, 150 mg, Cohort 7, 150 mg BID of Form B, Day 15; read-out: Trough Compound I Concentration, Min
assay_metric: concentration at 15 day
Please state the value followed by its unit.

Bench note: what concentration at 15 day did CC(C)N1CCN(c2ccc(Nc3ncc4cc5n(c4n3)C3(CCCCC3)CNC5=O)nc2)CC1 [Compound I] show?
15.5 ng/mL

----------
experiment: Plasma concentration versus time of Compound I and metabolite Compound III in patients dosed QD or BID with Form B of Compound II plus fulvestrant; format: in vivo, human; conditions: human, plasma, oral, 650 mg, 650 mg QD of Form B, Day 1, 6.0 h, Median; read-out: Compound I Concentration
assay_metric: concentration at 6 h (ng/mL)
I only need the number, in ng/mL, no unit after it.

Bench note: what concentration at 6 h did `CC(C)N1CCN(c2ccc(Nc3ncc4cc5n(c4n3)C3(CCCCC3)CNC5=O)nc2)CC1` show?
49.8

----------
experiment: Steady-state AUC0-24,ss, (AUC0-24,ss)/dose, half-life and time to steady state: Compound I versus palbociclib, ribociclib, abemaciclib; format: in vivo, human; conditions: human, plasma, oral; 400 mg QD of Form B of Compound II, Day 29
assay_metric: Cmax
Please state the value followed by its unit.

Bench note: what Cmax did `CC(C)N1CCN(c2ccc(Nc3ncc4cc5n(c4n3)C3(CCCCC3)CNC5=O)nc2)CC1` show?
19 ng/mL

----------
Experiment: Plasma concentration versus time of Compound I and metabolite Compound III in patients dosed QD or BID with Form B of Compound II plus fulvestrant
Assay type: in vivo, human
Conditions: human, plasma, oral, 100 mg, Cohort 6, 100 mg BID of Form B, Day 29, 12.0 h; read-out: Compound I Concentration, Min
Excerpt: Patients were enrolled into 1 of 2 parallel, independently operating, dose-escalation dosing cohorts with Form B of Compound II administered continuously either once daily (QD) or twice daily (BID) with food with fixed-dose fulvestrant (intramuscularly every 14 days for the first three injections and then every 28 days). Pre- or perimenopausal patients also received goserelin for the duration of study treatment. […]
assay_metric: concentration at 12 h (ng/mL)
I only need the number, in ng/mL, no unit after it.

Bench note: what concentration at 12 h did `CC(C)N1CCN(c2ccc(Nc3ncc4cc5n(c4n3)C3(CCCCC3)CNC5=O)nc2)CC1` show?
2.37

----------
assay: Plasma concentration versus time of Compound I and metabolite Compound III in patients dosed QD or BID with Form B of Compound II plus fulvestrant; type: in vivo, human; details: human, plasma, oral, 300 mg, 300 mg QD of Form B, Day 1, 12.0 h, Median; read-out: Compound I Concentration
assay_metric: concentration at 12 h (ng/mL)
I only need the number, in ng/mL, no unit after it.

Bench note: what concentration at 12 h did `CC(C)N1CCN(c2ccc(Nc3ncc4cc5n(c4n3)C3(CCCCC3)CNC5=O)nc2)CC1` show?
13.5

----------
experiment: Plasma concentration versus time of Compound I and metabolite Compound III in patients dosed QD or BID with Form B of Compound II plus fulvestrant; type: in vivo, human; conditions: human, plasma, oral, 400 mg, 400 mg QD of Form B, Day 1, 10.0 h, Median; read-out: Compound I Concentration
assay_metric: concentration at 10 h (ng/mL)
I only need the number, in ng/mL, no unit after it.

Bench note: what concentration at 10 h did `CC(C)N1CCN(c2ccc(Nc3ncc4cc5n(c4n3)C3(CCCCC3)CNC5=O)nc2)CC1` show?
9.56

----------
assay: Noncompartmental pharmacokinetic parameters (Cmax, Tmax, AUC, Racc) in QD and BID cohorts of Form B; format: in vivo, human; conditions: human, plasma, oral, 300 mg, Compound III; 300 mg QD of Form B; Cohort 2; Day 29; read-out: AUClast (Mean)
assay_metric: AUC(0-t) (ng·h/mL)
I only need the number, in ng·h/mL, no unit after it.

Bench note: what AUC(0-t) did O=C1NCC2(CCCCC2)n2c1cc1cnc(Nc3ccc(N4CCNCC4)cn3)nc12 [Compound III] show?
66.2

----------
experiment: Plasma concentration versus time of Compound I and metabolite Compound III in patients dosed QD or BID with Form B of Compound II plus fulvestrant; type: in vivo, human; conditions: human, plasma, oral, 650 mg, Cohort 5, 650 mg QD of Form B, Day 8; read-out: Trough Compound I Concentration, Median
assay_metric: concentration at 8 day (ng/mL)
I only need the number, in ng/mL, no unit after it.

Bench note: what concentration at 8 day did CC(C)N1CCN(c2ccc(Nc3ncc4cc5n(c4n3)C3(CCCCC3)CNC5=O)nc2)CC1 [Compound I] show?
28.3

----------
assay: Plasma concentration versus time of Compound I and metabolite Compound III in patients dosed QD or BID with Form B of Compound II plus fulvestrant; type: in vivo, human; details: human, plasma, oral, 100 mg, 100 mg BID of Form B, Day 1, 10.0 h, Median; read-out: Compound I Concentration
assay_metric: concentration at 10 h

Bench note: what concentration at 10 h did CC(C)N1CCN(c2ccc(Nc3ncc4cc5n(c4n3)C3(CCCCC3)CNC5=O)nc2)CC1 [Compound I] show?
2.91 ng/mL

----------
assay: Plasma concentration versus time of Compound I and metabolite Compound III in patients dosed QD or BID with Form B of Compound II plus fulvestrant; assay type: in vivo, human; settings: human, plasma, oral, 650 mg, 650 mg QD of Form B, Day 1, 4.0 h, Median; read-out: Compound I Concentration
assay_metric: concentration at 4 h (ng/mL)
I only need the number, in ng/mL, no unit after it.

Bench note: what concentration at 4 h did `CC(C)N1CCN(c2ccc(Nc3ncc4cc5n(c4n3)C3(CCCCC3)CNC5=O)nc2)CC1` show?
43.5

----------
assay: Plasma concentration versus time of Compound I and metabolite Compound III in patients dosed QD or BID with Form B of Compound II plus fulvestrant; assay type: in vivo, human; conditions: human, plasma, oral, 400 mg, 400 mg QD of Form B, Day 1, 3.0 h, Median; read-out: Compound I Concentration
assay_metric: concentration at 3 h (ng/mL)
I only need the number, in ng/mL, no unit after it.

Bench note: what concentration at 3 h did `CC(C)N1CCN(c2ccc(Nc3ncc4cc5n(c4n3)C3(CCCCC3)CNC5=O)nc2)CC1` show?
9.38

----------
assay: Noncompartmental pharmacokinetic parameters (Cmax, Tmax, AUC, Racc) in QD and BID cohorts of Form B; format: in vivo, human; conditions: human, plasma, oral, 100 mg, Compound I; 100 mg BID of Form B; Cohort 6; Day 29; read-out: Cmax (Mean)
assay_metric: Cmax
Please state the value followed by its unit.

Bench note: what Cmax did `CC(C)N1CCN(c2ccc(Nc3ncc4cc5n(c4n3)C3(CCCCC3)CNC5=O)nc2)CC1` show?
0.0123 µg/mL

----------
assay: Plasma concentration versus time of Compound I and metabolite Compound III in patients dosed QD or BID with Form B of Compound II plus fulvestrant; type: in vivo, human; settings: human, plasma, oral, 650 mg, Cohort 5, 650 mg QD of Form B, Day 29, 0.0 h; read-out: Compound III Concentration, Min
assay_metric: concentration at 0 h (ng/mL)
I only need the number, in ng/mL, no unit after it.

Bench note: what concentration at 0 h did O=C1NCC2(CCCCC2)n2c1cc1cnc(Nc3ccc(N4CCNCC4)cn3)nc12 [Compound III] show?
1.3
